Source of measurements: paper PMC6759758

Here the recorded Kd is given for each entry.
Molecular target: EcMCM (E. coli MCM) (Escherichia coli)
Sequence (P27253 whole entry): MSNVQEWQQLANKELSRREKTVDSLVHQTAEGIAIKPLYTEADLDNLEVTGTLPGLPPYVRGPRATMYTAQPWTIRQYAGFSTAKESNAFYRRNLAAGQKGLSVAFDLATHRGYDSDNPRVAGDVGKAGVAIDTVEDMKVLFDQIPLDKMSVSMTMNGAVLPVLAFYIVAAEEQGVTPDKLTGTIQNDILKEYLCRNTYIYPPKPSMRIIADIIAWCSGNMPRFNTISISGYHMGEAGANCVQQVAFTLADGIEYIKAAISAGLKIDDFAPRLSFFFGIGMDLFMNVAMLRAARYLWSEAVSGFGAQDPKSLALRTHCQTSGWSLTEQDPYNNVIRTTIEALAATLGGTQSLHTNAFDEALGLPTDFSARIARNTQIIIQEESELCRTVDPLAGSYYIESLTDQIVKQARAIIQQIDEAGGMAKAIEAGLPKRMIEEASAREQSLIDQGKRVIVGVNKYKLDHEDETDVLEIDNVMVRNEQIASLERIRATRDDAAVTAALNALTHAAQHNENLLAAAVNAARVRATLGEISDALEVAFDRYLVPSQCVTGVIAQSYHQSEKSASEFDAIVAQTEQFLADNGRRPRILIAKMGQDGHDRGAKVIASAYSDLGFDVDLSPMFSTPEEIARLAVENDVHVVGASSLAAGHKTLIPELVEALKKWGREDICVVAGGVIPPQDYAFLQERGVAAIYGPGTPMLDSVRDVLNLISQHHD
Just the number please, in µM, no unit attached.

C/C1=C2/[N-][C@H]([C@H](CC(N)=O)[C@@]2(C)CCC(=O)NC[C@@H](C)OP(=O)([O-])O[C@H]2[C@@H](O)[C@@H](n3cnc4cc(C)c(C)cc43)O[C@@H]2CO)[C@]2(C)N=C(/C(C)=C3N=C(/C=C4N=C1[C@@H](CCC(N)=O)C\4(C)C)[C@@H](CCC(N)=O)[C@]\3(C)CC(N)=O)[C@@H](CCC(N)=O)[C@]2(C)CC(N)=O.[CH2-][C@H]1O[C@@H](n2cnc3c(N)ncnc32)[C@H](O)[C@@H]1O.[Co+3] [AdoCbl, adenosylcobalamin, reference compound]	0.6
C/C1=C2/[N-][C@H]([C@H](CC(N)=O)[C@@]2(C)CCC(=O)NC[C@@H](C)OP(=O)([O-])O[C@H]2[C@@H](O)[C@@H](Oc3ccc(C)cc3)O[C@@H]2CO)[C@]2(C)N=C(/C(C)=C3N=C(/C=C4N=C1[C@@H](CCC(N)=O)C\4(C)C)[C@@H](CCC(N)=O)[C@]\3(C)CC(N)=O)[C@@H](CCC(N)=O)[C@]2(C)CC(N)=O.[CH2-][C@H]1O[C@@H](n2cnc3c(N)ncnc32)[C@H](O)[C@@H]1O.[Co+3] [Ado[Cre]Cba, para-Cresolylcobamide]	0.62
C/C1=C2/[N-][C@H]([C@H](CC(N)=O)[C@@]2(C)CCC(=O)NC[C@@H](C)OP(=O)([O-])O[C@H]2[C@@H](O)[C@@H](n3cnc4ccccc43)O[C@@H]2CO)[C@]2(C)N=C(/C(C)=C3N=C(/C=C4N=C1[C@@H](CCC(N)=O)C\4(C)C)[C@@H](CCC(N)=O)[C@]\3(C)CC(N)=O)[C@@H](CCC(N)=O)[C@]2(C)CC(N)=O.[CH2-][C@H]1O[C@@H](n2cnc3c(N)ncnc32)[C@H](O)[C@@H]1O.[Co+3] [Ado[Bza]Cba, Benzimidazolylcobamide]	1.8
C/C1=C2/[N-][C@H]([C@H](CC(N)=O)[C@@]2(C)CCC(=O)NC[C@@H](C)OP(=O)([O-])O[C@H]2[C@@H](O)[C@@H](n3cnc4ncnc(N)c43)O[C@@H]2CO)[C@]2(C)N=C(/C(C)=C3N=C(/C=C4N=C1[C@@H](CCC(N)=O)C\4(C)C)[C@@H](CCC(N)=O)[C@]\3(C)CC(N)=O)[C@@H](CCC(N)=O)[C@]2(C)CC(N)=O.[CH2-][C@H]1O[C@@H](n2cnc3c(N)ncnc32)[C@H](O)[C@@H]1O.[Co+3] [Ado[Ade]Cba, Adeninylcobamide]	1.6
C/C1=C2/[N-][C@H]([C@H](CC(N)=O)[C@@]2(C)CCC(=O)NC[C@@H](C)OP(=O)([O-])O[C@H]2[C@@H](O)[C@@H](Oc3ccccc3)O[C@@H]2CO)[C@]2(C)N=C(/C(C)=C3N=C(/C=C4N=C1[C@@H](CCC(N)=O)C\4(C)C)[C@@H](CCC(N)=O)[C@]\3(C)CC(N)=O)[C@@H](CCC(N)=O)[C@]2(C)CC(N)=O.[CH2-][C@H]1O[C@@H](n2cnc3c(N)ncnc32)[C@H](O)[C@@H]1O.[Co+3] [Ado[Phe]Cba, Phenolylcobamide]	1.3

Note: attention shifts to another entry.
// Kd (EcMCM (E. coli MCM) (Escherichia coli)) for C/C1=C2/[N-][C@H]([C@H](CC(N)=O)[C@@]2(C)CCC(=O)NC[C@@H](C)OP(=O)([O-])O[C@H]2[C@@H](O)[C@@H](n3cnc4nc(C)nc(N)c43)O[C@@H]2CO)[C@]2(C)N=C(/C(C)=C3N=C(/C=C4N=C1[C@@H](CCC(N)=O)C\4(C)C)[C@@H](CCC(N)=O)[C@]\3(C)CC(N)=O)[C@@H](CCC(N)=O)[C@]2(C)CC(N)=O.[CH2-][C@H]1O[C@@H](n2cnc3c(N)ncnc32)[C@H](O)[C@@H]1O.[Co+3] [Ado[2-MeAde]Cba, 2-Methyladeninylcobamide] = 0.35
